# System: LoVo
# assay_overview: SRB colorimetric assay of cell growth and viability, LoVo
# Format: cell-based, human
# applied_conditions: 48 hours exposure, SRB
Where a SMILES comes first, the peptide text is derived from it. Bridges are numbered along the chain shown (N, C = ends). [ ]: non-standard residue; d: D form. The star is where a group is joined. d(aIle) = CC[C@H](C)[C@@H](N)C(=O)O; d(aThr) = C[C@@H](O)[C@@H](N)C(=O)O; Hexanoyl(5-Me) = CC(C)CCCC(=O)*; Orn = NCCC[C@H](N)C(=O)O; Dhb = C/C=C(\N)C(=O)O; Aib = CC(C)(N)C(=O)O; Dha = C=C(N)C(=O)O
GI50 under 0.2 µM gets yes, anything at or over 0.2 µM gets no.

[[record]]
compound = "C/C=C1\\NC(=O)[C@H](Cc2ccccc2)NC(=O)[C@@H](C(C)C)NC(=O)[C@@H]([C@@H](C)CC)NC(=O)[C@H](NC(=O)[C@H](NC(=O)[C@H](CCCNC(=O)C(F)(F)F)NC(=O)[C@H]2CCCN2C(=O)[C@H](NC(=O)[C@@H](NC(=O)[C@@H](NC(=O)[C@H](NC(=O)CC[C@@H](C)CC)C(C)C)[C@@H](C)O)C(C)C)C(C)C)[C@@H](C)CC)[C@@H](C)OC(=O)[C@H](C(C)C)NC1=O"
assayed_system = "LoVo"
class = "yes"

[[record]]
compound = "C/C=C1\\NC(=O)[C@H](Cc2ccc([N+](=O)[O-])cc2)NC(=O)[C@@H](C(C)C)NC(=O)[C@@H]([C@@H](C)CC)NC(=O)[C@H](NC(=O)[C@H](NC(=O)[C@H](CCCN)NC(=O)[C@H]2CCCN2C(=O)[C@H](NC(=O)[C@@H](NC(=O)[C@@H](NC(=O)[C@H](NC(=O)CC[C@@H](C)CC)C(C)C)[C@@H](C)O)C(C)C)C(C)C)[C@@H](C)CC)[C@@H](C)OC(=O)[C@H](C(C)C)NC1=O [Compound 73, [Phe(4-NO2)^3, (4S)-MeHex^14]-KF]"
assayed_system = "LoVo"
class = "yes"

[[record]]
compound = "CC[C@H](C)[C@@H](NC(=O)[C@H](CCCN)NC(=O)[C@H]1CCCN1C(=O)[C@H](NC(=O)[C@@H](NC(=O)[C@@H](NC(=O)[C@H](NC(=O)CCCC(C)C)C(C)C)[C@@H](C)O)C(C)C)C(C)C)C(=O)N[C@H]1C(=O)N[C@H]([C@@H](C)CC)C(=O)N[C@H](C(C)C)C(=O)N[C@@H](Cc2ccccc2)C(=O)NC(C)(C)C(=O)N[C@@H](C(C)C)C(=O)O[C@@H]1C [Compound 66, [Aib^2]-KF] ({Hexanoyl(5-Me)}-[dV]TV[dV][dP][Orn][d(aIle)][d(aThr)][d(aIle)][dV]F[Aib]V; ester 8-C)"
assayed_system = "LoVo"
class = "no"

[[record]]
compound = "CC[C@H](C)[C@@H](NC(=O)[C@H](CCCN)NC(=O)[C@H]1CCCN1C(=O)[C@H](NC(=O)[C@@H](NC(=O)[C@@H](NC(=O)[C@H](NC(=O)CCCC(C)C)C(C)C)[C@@H](C)O)C(C)C)C(C)C)C(=O)N[C@H]1C(=O)N[C@H]([C@@H](C)CC)C(=O)N[C@H](C(C)C)C(=O)N[C@@H](Cc2ccccc2)C(=O)NCC(=O)N[C@@H](C(C)C)C(=O)O[C@@H]1C [Compound 65, [Gly^2]-KF] ({Hexanoyl(5-Me)}-[dV]TV[dV][dP][Orn][d(aIle)][d(aThr)][d(aIle)][dV]FGV; ester 8-C)"
assayed_system = "LoVo"
class = "no"

[[record]]
compound = "C=C1NC(=O)[C@H](Cc2ccccc2)NC(=O)[C@@H](C(C)C)NC(=O)[C@@H]([C@@H](C)CC)NC(=O)[C@H](NC(=O)[C@H](NC(=O)[C@H](CCCN)NC(=O)[C@H]2CCCN2C(=O)[C@H](NC(=O)[C@@H](NC(=O)[C@@H](NC(=O)[C@H](NC(=O)CCCC(C)C)C(C)C)[C@@H](C)O)C(C)C)C(C)C)[C@@H](C)CC)[C@@H](C)OC(=O)[C@H](C(C)C)NC1=O [Compound 67, [Dha^2]-KF] ({Hexanoyl(5-Me)}-[dV]TV[dV][dP][Orn][d(aIle)][d(aThr)][d(aIle)][dV]F[Dha]V; ester 8-C)"
assayed_system = "LoVo"
class = "yes"

[[record]]
compound = "C/C=C1\\NC(=O)[C@@H](Cc2ccccc2)NC(=O)[C@H](C(C)C)NC(=O)[C@H]([C@H](C)CC)NC(=O)[C@@H](NC(=O)[C@@H](NC(=O)[C@@H](CCCN)NC(=O)[C@@H]2CCCN2C(=O)[C@@H](NC(=O)[C@H](NC(=O)[C@H](NC(=O)[C@@H](NC(=O)CCCC(C)C)C(C)C)[C@H](C)O)C(C)C)C(C)C)[C@H](C)CC)[C@H](C)OC(=O)[C@@H](C(C)C)NC1=O"
assayed_system = "LoVo"
class = "no"

[[record]]
compound = "C/C=C1\\NC(=O)[C@H](Cc2ccccc2)NC(=O)[C@@H](C(C)C)NC(=O)[C@@H]([C@@H](C)CC)NC(=O)[C@H](NC(=O)[C@H](NC(=O)[C@H](CCCN)NC(=O)[C@H]2CCCN2C(=O)[C@H](NC(=O)[C@@H](NC(=O)[C@@H](NC(=O)[C@H](NC(=O)CC[C@@H](C)[C@H]2CC[C@H]3[C@@H]4CC[C@@H]5C[C@H](OC(=O)C(F)(F)F)CC[C@]5(C)[C@H]4CC[C@]23C)C(C)C)[C@@H](C)OC(=O)C(F)(F)F)C(C)C)C(C)C)[C@@H](C)CC)[C@@H](C)OC(=O)[C@H](C(C)C)NC1=O"
assayed_system = "LoVo"
class = "yes"

[[record]]
compound = "C/C=C1\\NC(=O)[C@H](Cc2ccc(I)cc2)NC(=O)[C@@H](C(C)C)NC(=O)[C@@H]([C@@H](C)CC)NC(=O)[C@H](NC(=O)[C@H](NC(=O)[C@H](CCCN)NC(=O)[C@H]2CCCN2C(=O)[C@H](NC(=O)[C@@H](NC(=O)[C@@H](NC(=O)[C@H](NC(=O)CC[C@@H](C)CC)C(C)C)[C@@H](C)O)C(C)C)C(C)C)[C@@H](C)CC)[C@@H](C)OC(=O)[C@H](C(C)C)NC1=O [Compound 72, [Phe(4-I)^3, (4S)-MeHex^14]-KF]"
assayed_system = "LoVo"
class = "yes"

[[record]]
compound = "C/C=C1\\NC(=O)[C@H](Cc2ccccc2)NC(=O)[C@@H](C(C)C)NC(=O)[C@@H]([C@@H](C)CC)NC(=O)[C@H](NC(=O)[C@H](NC(=O)[C@H](CCCN)NC(=O)[C@H]2CCCN2C(=O)[C@H](NC(=O)[C@@H](NC(=O)[C@H](CCCN)NC(=O)CCCC(C)C)C(C)C)C(C)C)[C@@H](C)CC)[C@@H](C)OC(=O)[C@H](C(C)C)NC1=O [Compound 57, [Orn^12, noD-Val^13]-KF] ({Hexanoyl(5-Me)}-[Orn]V[dV][dP][Orn][d(aIle)][d(aThr)][d(aIle)][dV]F[Dhb]V; ester 7-C)"
assayed_system = "LoVo"
class = "no"

[[record]]
compound = "C/C=C1\\NC(=O)[C@H](Cc2c(F)c(F)c(F)c(F)c2F)NC(=O)[C@@H](C(C)C)NC(=O)[C@@H]([C@@H](C)CC)NC(=O)[C@H](NC(=O)[C@H](NC(=O)[C@H](CCCN)NC(=O)[C@H]2CCCN2C(=O)[C@H](NC(=O)[C@@H](NC(=O)[C@@H](NC(=O)[C@H](NC(=O)CC[C@@H](C)CC)C(C)C)[C@@H](C)O)C(C)C)C(C)C)[C@@H](C)CC)[C@@H](C)OC(=O)[C@H](C(C)C)NC1=O [Compound 71, [Phe(F5)^3, (4S)-MeHex^14]-KF]"
assayed_system = "LoVo"
class = "yes"


Values were extracted from patent US20070117743A1.
